system-under-test: protein-protein interaction between Kras and SOS1 (biotin-tagged human Kras loaded with GDP, His-tagged human SOS1) (Homo sapiens (Human), UniProt P01116, G12D)
assay-info: Protein-protein interaction inhibition between Kras and SOS1 (KrasG12D-SOS PPI) using AlphaScreen
Type: biochemical
measurement-parameters: AlphaScreen; biotin-tagged human Kras loaded with GDP, His-tagged human SOS1; read-out: KRAS G12D-SOS PPI IC50
Bridge positions count the residues as written; N and C are the ends. Square brackets hold non-standard residues; d marks the D form. Peptide text beside a SMILES is read from it. * marks the point of attachment. hPhe(3-Cl-4-CF3) = N[C@@H](CCc1ccc(C(F)(F)F)c(Cl)c1)C(=O)O; NMeGly(cBu) = CN[C@H](C(=O)O)C1CCC1; NMeCha = CN[C@@H](CC1CCCCC1)C(=O)O; NMeD = CN[C@@H](CC(=O)O)C(=O)O; NMeL = CN[C@@H](CC(C)C)C(=O)O; NMeNva = CCC[C@H](NC)C(=O)O; NPhGly = O=C(O)CNc1ccccc1; NMeA = CN[C@@H](C)C(=O)O; NMeAib = CNC(C)(C)C(=O)O; Piperidide = C1CCN(*)CC1; Ac5c = NC1(C(=O)O)CCCC1; Aze = O=C(O)[C@@H]1CCN1; Sar = CNCC(=O)O
parameter-measured: IC50 (nM)
Field format: number, assumed nM, no unit text.

compound: CCC[C@H]1C(=O)N(C)[C@H](C(=O)N2CCCCC2)CC(=O)N(C)[C@@H](CC(C)C)C(=O)N[C@@H]([C@@H](C)CC)C(=O)N(C)[C@@H](C)C(=O)N2CC[C@H]2C(=O)N(C)[C@@H](CC2CCCCC2)C(=O)N(C)CC(=O)N[C@@H](CCc2ccc(C(F)(F)F)c(Cl)c2)C(=O)N2CCC[C@H]2C(=O)NC2(CCCC2)C(=O)N1C [Compound 995] ([NMeL]I[NMeA][Aze][NMeCha][Sar][hPhe(3-Cl-4-CF3)]P[Ac5c][NMeNva][NMeD]-Piperidide; lactam N-11)
IC50 (nM): 5.7

Entry CC[C@H](C)[C@@H]1NC(=O)[C@H](C)N(C)C(=O)C[C@@H](C(=O)N2CCCCC2)N(C)C(=O)[C@H](C2CCC2)N(C)C(=O)C(C)(C)N(C)C(=O)CN(c2ccccc2)C(=O)[C@H](CCc2ccc(C(F)(F)F)c(Cl)c2)NC(=O)CN(C)C(=O)[C@H](CC2CCCCC2)N(C)C(=O)CN(C)C(=O)CN(C)C1=O [Compound 2150] ([NMeA]I[Sar][Sar][NMeCha][Sar][hPhe(3-Cl-4-CF3)][NPhGly][NMeAib][NMeGly(cBu)][NMeD]-Piperidide; lactam N-11) — recorded IC50 = 5.7

---

system-under-test: protein-protein interaction between Kras and SOS1 (biotin-tagged human Kras loaded with GDP, His-tagged human SOS1) (Homo sapiens (Human), UniProt P01116, G12D)
assay-info: Protein-protein interaction inhibition between Kras and SOS1 (KrasG12D-SOS PPI) using AlphaScreen;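 also: kras produced in E. coli, Ni-coupled donor beads and streptavidin acceptor beads, excitation 680 nm with emission detected at 520–620 nm via singlet oxygen transfer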
Assay type: biochemical
measurement-parameters: AlphaScreen; biotin-tagged human Kras loaded with GDP, His-tagged human SOS1; read-out: KRAS G12D-SOS PPI IC50
Numbered stars: 1 amine (or outer) side, 2 acyl side, 3 side chain; on linkers, the order of the positions; unused ones are H or OH. Bridge positions count the residues as written; N and C are the ends. Square brackets hold non-standard residues; d marks the D form. Peptide text beside a SMILES is read from it. * marks the point of attachment. hPhe(3-Cl-4-CF3) = N[C@@H](CCc1ccc(C(F)(F)F)c(Cl)c1)C(=O)O; hPhe(3-F,4-CF3) = N[C@@H](CCc1ccc(C(F)(F)F)c(F)c1)C(=O)O; hPhe(4-CF3) = N[C@@H](CCc1ccc(C(F)(F)F)cc1)C(=O)O; NMePhe(4-Cl) = CN[C@@H](Cc1ccc(Cl)cc1)C(=O)O; NMePhe(4-Me) = CN[C@@H](Cc1ccc(C)cc1)C(=O)O; X5 = CCN([C@@H](CC1CCCCC1)C(=O)[*:2])[*:1]; NMedβ3hAla = C[C@H](CC(=O)[*:2])N(C)[*:1]; NMeAla(cPent) = CN[C@@H](CC1CCCC1)C(=O)O; NMeGly(cPent) = CN[C@H](C(=O)O)C1CCCC1; NMeCha = CN[C@@H](CC1CCCCC1)C(=O)O; NMeI = CC[C@H](C)[C@H](NC)C(=O)O; N(CH2CH2)2CF2 = FC1(F)CCN(*)CC1; NMeD = CN[C@@H](CC(=O)O)C(=O)O; NMeL = CN[C@@H](CC(C)C)C(=O)O; NMeV = CN[C@H](C(=O)O)C(C)C; d(β3hA) = C[C@@H](N)CC(=O)O; NMeS = CN[C@@H](CO)C(=O)O; Morpholide = C1CN(*)CCO1; NMeA = CN[C@@H](C)C(=O)O; Piperidide = C1CCN(*)CC1; dNMeA = CN[C@H](C)C(=O)O; Ac5c = NC1(C(=O)O)CCCC1; Aze = O=C(O)[C@@H]1CCN1; Aib = CC(C)(N)C(=O)O; Sar = CNCC(=O)O; Propyl = CCC*
Class boundaries, taken from values of IC50, are as follows: range A: < 3 nM; range B: ≥ 3 nM and < 80 nM; range C: ≥ 80 nM

Answered examples (7):
compound: CC[C@H](C)[C@@H]1NC(=O)[C@H](CC(C)C)N(C)C(=O)C[C@@H](C(=O)N2CCCCC2)NC(=O)[C@H](C(C)C)N(C)C(=O)C2(CCCC2)NC(=O)[C@H](CC(=O)N2CCC(F)(F)CC2)N(C)C(=O)[C@H](CCc2ccc(C(F)(F)F)c(Cl)c2)NC(=O)CN(C)C(=O)[C@H](CC2CCCCC2)N(C)C(=O)CN(C)C(=O)CN(C)C1=O [Compound 3] ([NMeL]I[Sar][Sar][NMeCha][Sar][hPhe(3-Cl-4-CF3)][NMeD](N(CH2CH2)2CF2)[Ac5c][NMeV]D-Piperidide; lactam N-11)
category: range C
//
compound: CO[C@H](C)[C@@H]1NC(=O)[C@H](CC(C)C)N(C)C(=O)C[C@@H](C(=O)N2CCCCC2)N(C)C(=O)[C@H](C(C)C)N(C)C(=O)C2(CCCC2)NC(=O)[C@@H]2CCCN2C(=O)[C@H](CCc2ccc(C(F)(F)F)c(Cl)c2)NC(=O)CN(C)C(=O)[C@H](CC2CCCCC2)N(C)C(=O)[C@@H]2CCN2C(=O)[C@H](C)N(C)C1=O [Compound 497] ([NMeL]T(Me)[NMeA][Aze][NMeCha][Sar][hPhe(3-Cl-4-CF3)]P[Ac5c][NMeV][NMeD]-Piperidide; lactam N-11)
category: range B
//
compound: CC[C@H](C)[C@@H]1NC(=O)[C@H](CC(C)C)N(C)C(=O)C[C@@H](C)NC(=O)[C@H](CC(C)C)N(C)C(=O)C(C)(C)NC(=O)[C@H](CC(C)C)N(C)C(=O)[C@H](CCc2ccc(C(F)(F)F)cc2)NC(=O)CN(C)C(=O)[C@H](Cc2ccc(Cl)cc2)N(C)C(=O)CN(C)C(=O)CN(C)C1=O [Compound 261] (cyclo([Aib][NMeL][d(β3hA)][NMeL]I[Sar][Sar][NMePhe(4-Cl)][Sar][hPhe(4-CF3)][NMeL]))
category: range B
//
compound: CCCOC[C@H]1C(=O)N2CC[C@H]2C(=O)N(C)[C@@H](CC2CCCCC2)C(=O)N(C)CC(=O)N[C@@H](CCc2ccc(C(F)(F)F)c(Cl)c2)C(=O)N2CCC[C@H]2C(=O)NC2(CCCC2)C(=O)N(C)[C@@H](C(C)C)C(=O)N[C@H](C)CC(=O)N(C)[C@@H](CC(C)C)C(=O)N[C@@H]([C@@H](C)CC)C(=O)N1C [Compound 852] (cyclo([Ac5c][NMeV][d(β3hA)][NMeL]I[NMeS](Propyl)[Aze][NMeCha][Sar][hPhe(3-Cl-4-CF3)]P))
category: range C
//
compound: CC[C@H](C)[C@@H]1NC(=O)[C@H](CC(C)C)N(C)C(=O)C[C@@H](C(=O)N2CCCCC2)N(C)C(=O)[C@H]([C@@H](C)CC)N(C)C(=O)C2(CCCC2)NC(=O)[C@@H]2CCCN2C(=O)[C@H](CCc2ccc(C(F)(F)F)c(F)c2)NC(=O)CN(C)C(=O)[C@H](Cc2ccc(C)cc2)N(C)C(=O)[C@@H]2CCN2C(=O)[C@H](C)N(C)C1=O [Compound 678] ([NMeL]I[NMeA][Aze][NMePhe(4-Me)][Sar][hPhe(3-F,4-CF3)]P[Ac5c][NMeI][NMeD]-Piperidide; lactam N-11)
category: range A
//
compound: CC[C@H](C)[C@@H]1NC(=O)[C@H](C)N(C)C(=O)C[C@@H](C)N(C)C(=O)[C@H](C(C)C)N(C)C(=O)C2(CCCC2)NC(=O)[C@@H]2CCCN2C(=O)[C@H](CCc2ccc(C(F)(F)F)c(Cl)c2)NC(=O)[C@@H](C)N(C)C(=O)[C@H](CC2CCCCC2)N(C)C(=O)[C@@H]2CCN2C(=O)[C@H](C)N(C)C1=O [Compound 1773] (cyclo([Ac5c][NMeV][NMedβ3hAla][NMeA]I[NMeA][Aze][NMeCha][dNMeA][hPhe(3-Cl-4-CF3)]P))
category: range B
//
compound: CC[C@H](C)[C@@H]1NC(=O)[C@H](CC2CCCC2)N(C)C(=O)C[C@@H](C(=O)N2CCOCC2)N(C)C(=O)[C@H](C2CCCC2)N(C)C(=O)C2(CCCC2)NC(=O)[C@@H]2CCCN2C(=O)[C@H](CCc2ccc(C(F)(F)F)c(Cl)c2)NC(=O)CN(C)C(=O)[C@H](C2CCCC2)N(C)C(=O)[C@@H]2CCN2C(=O)[C@H](C)N(C)C1=O [Compound 1173] ([NMeAla(cPent)]I[NMeA][Aze][NMeGly(cPent)][Sar][hPhe(3-Cl-4-CF3)]P[Ac5c][NMeGly(cPent)][NMeD]-Morpholide; lactam N-11)
category: range A

Exercise: Band for CC[C@H](C)[C@@H]1NC(=O)[C@H](CC(C)C)N(C)C(=O)C[C@@H](C(=O)N2CCCCC2)N(C)C(=O)[C@H](C(C)C)N(C)C(=O)C2(CCCC2)NC(=O)[C@@H]2CCCN2C(=O)[C@H](CCc2ccc(C(F)(F)F)c(Cl)c2)NC(=O)CN(C)C(=O)[C@H](CC2CCCCC2)N(CC)C(=O)[C@@H]2CCN2C(=O)[C@H](C)N(C)C1=O [Compound 23] ([NMeL]I[NMeA][Aze][X5][Sar][hPhe(3-Cl-4-CF3)]P[Ac5c][NMeV][NMeD]-Piperidide; lactam N-11) ?
Key: range A
